- Assay: folding enthalpy; higher = less favourable; fluorescence melt of hairpins on a sequencing array, two-state fit
- Run Conditions: sodium 0.088 M
// reported folding enthalpy for each item listed

Residue Codes	Unit Spec	folding enthalpy
GTTCCTGGAAACAGGGAC ((.((((....)))).))	kcal/mol	-35.1
GCATAGCGAAAGCAAAGC ((.(.((....)).).))	kcal/mol	-9.49
GACTTGGGAAACCGAGTC ((((.((....)).))))	kcal/mol	-45.3
GCGTAGGGAAACCTGCGC (((.(((....))).)))	kcal/mol	-37.7
GCTTTGCGAAAGCGAGGC ((.(.((....)).).))	kcal/mol	-17.1
GGCCGGACGAAAGTCGCC (((..(((....))))))	kcal/mol	-21.5

* * *

- Assay: melting temperature; fluorescence melt of hairpins on a sequencing array, two-state fit, raised by 9.35 °C to match UV melts
- Run Conditions: sodium 0.088 M
Tm below 50 °C gives No; Tm at or above it gives Yes.

Residue Codes	Group
GGGTCCGAAAGGAGTCCC ((((((....)))..)))	No
GACAACGGAAACGCTGTC ((((.((....)).))))	No
GTCCCATCGAAAGATGAC (((..(((....))))))	No
GGTTGCCGAAAGGCCACC (((.(((....))).)))	Yes
GCGTCATCGAAAGATCGC (((..(((....))))))	No
GGGCTGTCGAAAGACCCC (((..(((....))))))	No
GCTTAAACGAAAGTTAGC (((..(((....))))))	No
GAAGGCGAAAGCCAATTC ((((((....)))..)))	No
GTTTAGACGAAAGTCAAC (((..(((....))))))	No
GATCGGGTGCCCGATC ((((((....))))))	Yes

* * *

Reported Tm values are given for each entry in this list.
- Assay: melting temperature; fluorescence melt of hairpins on a sequencing array, two-state fit, raised by 9.35 °C to match UV melts
- Run Conditions: sodium 0.088 M

Residue Codes	Tm, °C
GATCCCGGATGGGATC ((((((....))))))	67.8
GTCTAATCGAAAGATGAC (((..(((....))))))	31.6
GGTCGAGGAAACTCGGCC ((.((((....)))).))	59.5
GAGTGCGAAAGCATACTC ((((((....)))..)))	43.1
GGACATGCGAAAGCATCC (((..(((....))))))	28.6
GTGCGCGGAAACGCACAC (((.(((....))).)))	65.5
GGTGCAGGAAACTGCGTC (..((((....))))..)	35.6
CGTTGGAAACAACG (((((....)))))	52.9
GATCGGACATCCGATC ((((((....))))))	55.3
GAGACTGGAAACAGTCCC (.(((((....))))).)	44.9
GATCACGAAAGTGGATC ((((((....))).)))	46.9
GCTTCGCGAAAGCACAGC (((..((....))..)))	38.2

* * *

Some sequences, each annotated with its measured folding enthalpy.
- Assay: folding enthalpy; higher = less favourable; fluorescence melt of hairpins on a sequencing array, two-state fit
- Run Conditions: sodium 0.088 M
Readout Label: folding enthalpy (kcal/mol)

Residue Codes	Unit Spec	Data Value
GCTAAGGGAAACCTTAGC (((((((....)))))))	kcal/mol	-40.7
TGTTCGAAAGAACA (((((....)))))	kcal/mol	-17.1
GGACGGCGAAAGCCCTCC (((.(((....))).)))	kcal/mol	-20.5
GGACGAGGAAACTTGTCC ((((.((....)).))))	kcal/mol	-43.5
GCCGAGCGAAAGCTACGC ((..(((....)))..))	kcal/mol	-12.1
GCGTCGCGAAAGCGGAGC ((..(((....)))..))	kcal/mol	-27.6
GTGACCGAAAGGTCCAC ((((((....))).)))	kcal/mol	-11.3
GCGCTAGGAAACCAGCAC (.(((.(....).))).)	kcal/mol	-9.67
GCGTCGTAACGC ((((....))))	kcal/mol	-21.4
GGCTGCACGAAAGTGGCC (((..(((....))))))	kcal/mol	-20
GTAAAGCGAAAGCTATAC (((.(((....))).)))	kcal/mol	-15.6
GCGCCGCGAAAGCGAGGC ((..(((....)))..))	kcal/mol	-13.7
GTACCTGGAAACAGGTAC (((((((....)))))))	kcal/mol	-41.8
GTCTCCCGAAAGGGGAC (((.(((....))))))	kcal/mol	-31.4
GGATGCGAAAGCAGTTCC ((((((....)))..)))	kcal/mol	-14.3
GGTCTATCGAAAGATACC (((..(((....))))))	kcal/mol	-10.3
GCTAGCCGAAAGGCAGC (((.(((....))))))	kcal/mol	-21.7
GAGGACCGAAAGGTTCTC (((.(((....))).)))	kcal/mol	-35.2
GTCCCGCGAAAGCGGAC (((.(((....))))))	kcal/mol	-9.81
GATCACCTCCGTGATC ((((((....))))))	kcal/mol	-32.5
GCGCAGCGAAAGCTCGGC ((..(((....)))..))	kcal/mol	-7.59
GGTATCGAAAGATGGACC ((((((....)))..)))	kcal/mol	-15.2
GATCCGTATGCGGATC ((((((....))))))	kcal/mol	-40.3
GCGCTGGGAAACCAGCAC (.(((((....))))).)	kcal/mol	-11.9
GTCCACGGAAACGCGGAC ((((.((....)).))))	kcal/mol	-45.8
GCATGCACGAAAGTGTGC (((..(((....))))))	kcal/mol	-13.3
GGCTTTGGAAACAAGGTC (.(.(((....))).).)	kcal/mol	-13.9
GCCCACCGAAAGGTAGGC (((.(((....))).)))	kcal/mol	-38
GGTACTCGAAAGAGCACC (((.(((....))).)))	kcal/mol	-34.8
GTGGCCGAAAGGCGCCAC ((((((....)))..)))	kcal/mol	-13.7
GGGAAAACGAAAGTTCCC (((..(((....))))))	kcal/mol	-27.1
GATCAGTGTTCTGATC ((((((....))))))	kcal/mol	-37.3
GTTTGAGGAAACTTAAGC (.((.((....)).)).)	kcal/mol	-13.9
GGGGGTGGAAACGTCCCC ((((..(....)..))))	kcal/mol	-26.2
GCATCCCGAAAGGGCTGC (((.(((....))).)))	kcal/mol	-36.2
GCTTCAGAAATGAAGC ((((((....))))))	kcal/mol	-33.7
GATCGACTGTTCGATC ((((((....))))))	kcal/mol	-40.5
GATCACGGGTGTGATC ((((((....))))))	kcal/mol	-36.9
GCTAGACGAAAGTCAGC (((.(((....))))))	kcal/mol	-23.1
CCGAGGAAACTCGG (((((....)))))	kcal/mol	-23.9
GCAGTGCGAAAGCAGCGC ((..(((....)))..))	kcal/mol	-17
GTTCCGGGAAACCAGAAC ((((.((....)).))))	kcal/mol	-31.7
GATCCTCCGCAGGATC ((((((....))))))	kcal/mol	-14.5
GCCTGTGGAAACACAGAC (.(((((....))))).)	kcal/mol	-15.8
GGTCTTGCGAAAGCAACC (((..(((....))))))	kcal/mol	-8.24
GTCCCACGAAAGTGAGAC (((.(((....))).)))	kcal/mol	-30.2
GACGCAGGAAACTGCATC ((.((((....)))).))	kcal/mol	-13.5
GATCAGGGAACTGATC ((((((....))))))	kcal/mol	-33
GATCAGTCAGCTGATC ((((((....))))))	kcal/mol	-40.9
GATCCACCTGTGGATC ((((((....))))))	kcal/mol	-42.1
